Each item that follows carries a reported pKi.
Biological target: BCL-2 (UniProt P10415 1-217, limits assumed)
Sequence (P10415 1-217 limits assumed): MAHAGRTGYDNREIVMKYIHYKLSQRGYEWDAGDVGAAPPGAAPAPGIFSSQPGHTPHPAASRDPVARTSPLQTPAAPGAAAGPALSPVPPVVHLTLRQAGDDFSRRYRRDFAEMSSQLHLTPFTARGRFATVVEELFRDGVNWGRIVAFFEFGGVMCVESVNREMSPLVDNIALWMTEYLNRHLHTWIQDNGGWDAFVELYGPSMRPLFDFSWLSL
Experiment: Ki table, method not stated
Positions of bridges follow the written chain, without caps; N, C: chain ends. Non-standard residues stand in square brackets, D forms with d. R8 = C=CCCCCCC[C@@](C)(N)C(=O)O; S5 = C=CCCC[C@](C)(N)C(=O)O
Units for pKi: none; it is -log10 of a concentration expressed in mol/L.

Ac-IAQALR[R8]IADAFN[S5]YYA-NH2 (staple 7-14; SMILES CC[C@H](C)[C@H](NC(C)=O)C(=O)N[C@@H](C)C(=O)N[C@@H](CCC(N)=O)C(=O)N[C@@H](C)C(=O)N[C@@H](CC(C)C)C(=O)N[C@@H](CCCNC(=N)N)C(=O)N[C@]1(C)CCCCCCC=CCCC[C@@](C)(C(=O)N[C@@H](Cc2ccc(O)cc2)C(=O)N[C@@H](Cc2ccc(O)cc2)C(=O)N[C@@H](C)C(N)=O)NC(=O)[C@H](CC(N)=O)NC(=O)[C@H](Cc2ccccc2)NC(=O)[C@H](C)NC(=O)[C@H](CC(=O)O)NC(=O)[C@H](C)NC(=O)[C@H]([C@@H](C)CC)NC1=O, also called Ac-IAQALR$r8IADAFN$YYA-NH2) [SEQ ID NO: 1638]    6.56

Consider the additional binder presented here.
So what does the record say about pKi for IWIAQALRAIGDAFNAYYA (not fully specified; Ac- at N-terminus; -NH2 at C-terminus; $r8 at 9 and $ at 16 joined by all-carbon crosslinker) [SEQ ID NO: 1633] ?
7.07
